experimentalProtocol: Acute toxicity by subcutaneous injection in rats
experimentalSetup: rat, in vivo, sc; subcutaneous injection, rats; read-out: acute toxicity
observationType: LD50

stdin: Given the compound O=Cc1ccccc1 , what is its reported LD50?
stdout: ≥ 5000 mg/kg

* * *

experimentalProtocol: Acute toxicity by subcutaneous injection in rats
experimentalSetup: rat, in vivo, sc
observationType: LD50

stdin: Given the molecule OC1O[C@@H]2COC(c3ccccc3)O[C@H]2[C@H](O)[C@H]1O (stereo partly shown) , what is its reported LD50?
stdout: ≥ 4000 mg/kg
